B1: library; numbered along this chain (parent)
chain: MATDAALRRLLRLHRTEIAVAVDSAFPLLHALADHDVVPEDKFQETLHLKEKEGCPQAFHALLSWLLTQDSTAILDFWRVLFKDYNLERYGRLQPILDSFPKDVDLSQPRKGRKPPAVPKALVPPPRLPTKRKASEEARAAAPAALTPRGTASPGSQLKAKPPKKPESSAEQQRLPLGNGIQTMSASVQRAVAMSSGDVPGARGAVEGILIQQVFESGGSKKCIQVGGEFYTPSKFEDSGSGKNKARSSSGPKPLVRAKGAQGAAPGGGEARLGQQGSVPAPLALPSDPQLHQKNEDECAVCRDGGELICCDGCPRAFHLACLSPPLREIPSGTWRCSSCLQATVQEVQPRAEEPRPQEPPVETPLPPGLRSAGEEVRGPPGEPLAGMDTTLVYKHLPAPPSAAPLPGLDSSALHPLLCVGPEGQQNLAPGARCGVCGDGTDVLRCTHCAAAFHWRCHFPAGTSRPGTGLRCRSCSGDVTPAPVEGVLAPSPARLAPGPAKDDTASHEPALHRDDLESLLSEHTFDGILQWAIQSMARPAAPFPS

# Variants of: B1
# assay_remarks: AIRE transcriptional activation functional score (insulin promoter-GFP; nonsense median 0, synonymous median 1) (normalised score); higher = higher AIRE activity (more reporter activation)
# measurement_setup: with insulin promoter-GFP reporter in HEK293
Parameter threshold = 0.2. Response is yes (1) when AIRE transcriptional activation functional score meets or exceeds it, else no (0).

| sequence_change | class_label |
| --- | --- |
| P481C | yes (1) |

Say whether G477Q shows AIRE transcriptional activation functional score of 0.2 or more.
no (0)

For this variant, is measured AIRE transcriptional activation functional score 0.2 or higher? L291Y
yes (1)

Determine whether measured AIRE transcriptional activation functional score meets or exceeds 0.2 for K83V
no (0)

Given C472F , state whether its AIRE transcriptional activation functional score is at least 0.2.
yes (1)

Check if AIRE transcriptional activation functional score >= 0.2 (inclusive). Item: C311N
yes (1)

Is it the case that K52G has AIRE transcriptional activation functional score reaching or exceeding 0.2?
yes (1)
